Tested on: BT-549
Conditions: 72 h
parameter_measured: EC50, CellTiter-Blue viability (nM)

CC[C@H](CO)Nc1nc(NCc2ccccc2)c2ncn(C(C)C)c2n1 : 684

1. CCNC(=O)c1noc(-c2cc(C(C)C)c(O)cc2O)c1-c1ccc(CN2CCOCC2)cc1
2. CC(=O)[C@]1(O)Cc2c(O)c3c(c(O)c2[C@@H](O[C@H]2C[C@H](N)[C@H](O)[C@H](C)O2)C1)C(=O)c1ccccc1C3=O
Query: // select label with min value of measured EC50, CellTiter-Blue viability from [ 1 , 2 ] Write down the label of the entry you select.
Result: 1
(1: 5.61 nM, 2: 91.5 nM)

The measurements presented in this section are drawn from the supplement of paper PMC4862054.
